Measured values drawn from patent US9701556B1 for this set.

Exercise: state measured Percentage of Sulfide Treated, Dose 1 12 ppm Chelant 37.8 ppm H2O2 for each of the compounds provided.
# assay_comment: Treatment of sulfides in municipal wastewater with ferric chelants and hydrogen peroxide
# condition_summary: after 30 minutes, 1.5:1.0 ratio of peroxide to sulfide
Answers are plain numbers.

Please give Percentage of Sulfide Treated, Dose 1 12 ppm Chelant 37.8 ppm H2O2, item by item, for the list that follows.
1. O=C([O-])CN(CCN(CC(=O)[O-])CC(=O)[O-])CC(=O)[O-].[Fe+3] [Fe-EDTA]
2. O=C([O-])CN(CC(=O)[O-])CC(=O)[O-].[Fe+3] [Fe-NTA]
3. O=C([O-])CN(CCO)CC(=O)[O-].[Fe+3] [Fe-HEIDA]
4. O=C([O-])CC(O)(CC(=O)[O-])C(=O)[O-].[Fe+3] [Ferric Citrate]

68.5
78.3
44.1
58.7
